From: patent US12187709B2

# Target entity: Cbl-b (Homo sapiens (Human), UniProt Q13191)
# Sequence (Q13191 40-426): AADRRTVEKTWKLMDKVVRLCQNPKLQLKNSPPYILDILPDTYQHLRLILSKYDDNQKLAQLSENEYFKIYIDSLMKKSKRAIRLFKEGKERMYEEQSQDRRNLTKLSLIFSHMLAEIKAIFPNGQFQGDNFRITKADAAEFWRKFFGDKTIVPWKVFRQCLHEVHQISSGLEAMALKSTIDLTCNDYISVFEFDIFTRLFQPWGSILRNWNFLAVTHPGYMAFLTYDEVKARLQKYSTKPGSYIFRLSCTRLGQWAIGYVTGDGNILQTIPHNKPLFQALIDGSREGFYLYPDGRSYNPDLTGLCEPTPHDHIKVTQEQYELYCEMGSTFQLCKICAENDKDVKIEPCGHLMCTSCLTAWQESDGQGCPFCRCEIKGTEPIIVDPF
# Protocol: Cbl-b LCK Ub TR-FRET assay (Cbl-b Lck HTRF)
# Type: biochemical
# Assay setup: ratio C-cbl Lck HTRF IC50 / Cbl-b Lck HTRF IC50
Measurement kind: (fold-selectivity) Cbl-b and C-Cbl Selectivity (x)

Field: example entries. Status: answers known.
>  <Compound>
Cn1cnnc1[C@H](c1cccc(N2Cc3c(cc(CNC4(C)CCC4)cc3C(F)F)C2=O)c1)C1CC(F)C1 (stereo partly shown) [Compound 460]

>  <Recorded value>
6.4

$$$$
>  <Compound>
Cn1cnnc1[C@@H](c1cccc(N2Cc3c(cc(CNC4(C)CC4)cc3C(F)(F)F)C2=O)c1)C1COC1 (single isomer, unassigned)

>  <Recorded value>
1.4

$$$$

[A] CO[C@H]1C[C@](c2cccc(N3Cc4c(cc(CNCC(C)C)cc4C(F)(F)F)C3=O)c2)(c2nncn2C)C1
[B] CO[C@H]1C[C@](c2cccc(N3Cc4c(cc(CNCC5CC56CC6(F)F)cc4C(F)(F)F)C3=O)c2)(c2nncn2C)C1 (stereo partly shown)
Quick check, higher (fold-selectivity) Cbl-b and C-Cbl Selectivity between A and B ? Output the label that corresponds to your choice.
B
(B: 4.2 x, A: 2.6 x)

###

# Target entity: Cbl-b (Homo sapiens (Human), UniProt Q13191)
# Protocol: Cbl-b LCK Ub TR-FRET assay (Cbl-b Lck HTRF)
# Format: biochemical
# Assay setup: Cbl-b LCK Ub TR-FRET
pIC50: −log10 of the molar value.
Measurement kind: pIC50

[A] Cn1cnnc1[C@@H](C[C@@H]1COCCO1)c1cccc(N2Cc3c(cc(CNC4(C)CCC4)cc3C(F)(F)F)C2=O)c1
[B] CC(=O)C1CC([C@H](c2cccc(N3Cc4c(cc(CNC5(C)CCC5)cc4C(F)(F)F)C3=O)c2)c2nncn2C)C1 (single isomer, unassigned) [Compound 382]
Quick check, higher pIC50 between A and B ? Output the label that corresponds to your choice.
B

[A] Cn1cnnc1[C@]1(c2cccc(N3Cc4c(cc(CNC5(C)CCC5)cc4C(F)(F)F)C3=O)c2)C[C@H]([S@@+](C)[O-])C1 (single isomer, unassigned)
[B] Cn1cnnc1[C@@H](c1cccc(N2Cc3c(cc(CNC4(C)CCC4)cc3C(F)(F)F)C2=O)c1)[C@@H]1CCOC1
I'm curious, which of these has a smaller pIC50 number: A or B ? Output the label that corresponds to your choice.
A

###

Listed here: compounds with reported pKd for Human Cbl-b (residues 40-426) (Homo sapiens (Human)).
Value format note: pKd is -log10 of concentration (mol/L); just state the number.

>  <Compound>
Cn1cnnc1[C@@H](c1cccc(N2Cc3c(cc(CNC4(C)CCC4)cc3C(F)F)C2=O)c1)C1CC(F)C1 (single isomer, unassigned) [Compound 459]

>  <pKd>
9.30

$$$$
>  <Compound>
Cn1cnnc1[C@]1(c2cccc(N3Cc4c(cc(CNC5(C)CCC5)cc4C(F)(F)F)C3=O)c2)C[C@@H](CO)C1.O=CO [Compound 100]

>  <pKd>
8.24

$$$$

Look up pKd: Cn1cnnc1[C@]1(c2cccc(N3Cc4c(cc(CNC5(C)CCC5)cc4C(F)(F)F)C3=O)c2)C[C@H](CO)C1.O=CO [Compound 99]
7.32

###

# Target entity: c-Cbl (residues 47-435) (Homo sapiens (Human))
# Sequence (P22681 47-435): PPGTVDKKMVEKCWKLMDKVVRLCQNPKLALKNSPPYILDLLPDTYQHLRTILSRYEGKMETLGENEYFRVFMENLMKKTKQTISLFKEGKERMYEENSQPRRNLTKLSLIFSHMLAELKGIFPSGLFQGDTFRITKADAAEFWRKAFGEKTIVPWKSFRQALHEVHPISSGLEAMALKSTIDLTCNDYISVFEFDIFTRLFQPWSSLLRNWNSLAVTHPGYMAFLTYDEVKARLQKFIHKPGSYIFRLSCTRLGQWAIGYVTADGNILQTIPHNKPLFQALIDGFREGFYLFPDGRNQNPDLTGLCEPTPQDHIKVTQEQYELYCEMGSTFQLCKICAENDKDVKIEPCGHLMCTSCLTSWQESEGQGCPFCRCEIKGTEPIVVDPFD
pKd: −log10 of the molar value.
Measurement kind: pKd

Field: example entries. Status: answers known.
>  <Molecule>
CO[C@H]1C[C@](c2cccc(N3Cc4c(cc(CNC5CC(C(F)F)C5)cc4C(F)(F)F)C3=O)c2)(c2nncn2C)C1 (stereo partly shown)

>  <Measurement kind>
pKd

>  <Recorded value>
7.70

$$$$
>  <Molecule>
Cn1cnnc1[C@@H](c1cccc(N2Cc3c(cc(CNC4(C)CCC4)cc3C(F)(F)F)C2=O)c1)C1CC(OC(F)F)C1 (single isomer, unassigned)

>  <Measurement kind>
pKd

>  <Recorded value>
6.01

$$$$
>  <Molecule>
C[C@@H](NC1(C)CCC1)c1cc2c(c(C(F)(F)F)c1)CN(c1cccc(C3(c4nncn4C)CC(F)(F)C3)c1)C2=O (single isomer, unassigned)

>  <Measurement kind>
pKd

>  <Recorded value>
8.96

$$$$
>  <Molecule>
Cn1cnnc1[C@]1(c2cccc(N3Cc4c(cc(CNC5(C)CCC5)cc4C(F)F)C3=O)c2)C[C@H](Cl)C1

>  <Measurement kind>
pKd

>  <Recorded value>
8.18

$$$$

[a] CO[C@H]1C[C@](c2cccc(N3Cc4c(cc(CNCC5(CF)CCC5)cc4C(F)(F)F)C3=O)c2)(c2nncn2C)C1
[b] CO[C@H]1C[C@](c2cc(NC3CCCC3)cc(N3Cc4c(cc(CNC5(C)CCC5)cc4C(F)(F)F)C3=O)c2)(c2nncn2C)C1
[c] Cn1cnnc1[C@]1(c2cccc(N3Cc4c(cc(CNC5(C)CCC5)cc4C(F)(F)F)C3=O)c2)C[C@@H](CC#N)C1
Order by pKd, ascending. Answer by listing the labels in the order asked for.
b, a, c
(b: 6.70, a: 7.28, c: 8.40)

###

# Target entity: Cbl-b (Homo sapiens (Human))
# Protocol: Cbl-b LCK Ub TR-FRET assay (Cbl-b Lck HTRF)
# Assay type: biochemical
# Assay setup: ratio C-cbl Lck HTRF IC50 / Cbl-b Lck HTRF IC50
Measurement kind: fold-selectivity (Cbl-b over C-cbl) (x)

>  <Compound>
C[C@@H](NC1(C)CCC1)c1cc2c(c(C(F)(F)F)c1)CN(c1cccc(C(c3nncn3C)C3COC3)c1)C2=O (stereo partly shown) [Compound 284]

>  <Recorded value>
7.3

$$$$

[I] CO[C@H]1C[C@](c2cc(NC3CCCC3)cc(N3Cc4c(cc(CNC5(C)CCC5)cc4C(F)(F)F)C3=O)c2)(c2nncn2C)C1 [Compound 209]
[II] Cc1cnnn1[C@@H](c1cccc(N2Cc3c(cc(CNC4(C)CCC4)cc3C(F)(F)F)C2=O)c1)C1COC1 (single isomer, unassigned) [Compound 135]
[III] CC(C)O[C@H]1C[C@@](c2cccc(N3Cc4c(cc(CNC5(C)CCC5)cc4C(F)(F)F)C3=O)c2)(c2nncn2C)C1 [Compound 222]
Order by fold-selectivity (Cbl-b over C-cbl), ascending. Answer by listing the labels in the order asked for.
II, III, I

###

# Target entity: Human Cbl-b (residues 40-426) (Homo sapiens (Human), UniProt Q13191)
# Sequence (Q13191 40-426): as the sequence (Q13191 40-426) above
Measurement kind: Kd (nM)

>  <Compound>
CCC(NCc1cc2c(c(C(F)(F)F)c1)CN(c1cccc([C@]3(c4nncn4C)C[C@H](OC)C3)c1)C2=O)C(=O)OC (stereo partly shown) [Compound 425]

>  <Unit name>
nM

>  <Recorded value>
170

$$$$
>  <Compound>
CO[C@H]1C[C@](c2cccc(N3Cc4c(cc(CNCC5CC5)cc4C(F)(F)F)C3=O)c2)(c2nncn2C)C1 [Compound 415]

>  <Unit name>
nM

>  <Recorded value>
5

$$$$
>  <Compound>
CS[C@H]1C[C@](c2cccc(N3Cc4c(cc(CNC5(C)CCC5)cc4C(F)(F)F)C3=O)c2)(c2nncn2C)C1 [Compound 323]

>  <Unit name>
nM

>  <Recorded value>
0.47

$$$$
>  <Compound>
CO[C@H]1C[C@@](c2cc(NC3CCCC3)cc(N3Cc4c(cc(CNC5(C)CCC5)cc4C(F)(F)F)C3=O)c2)(c2nncn2C)C1 [Compound 218]

>  <Unit name>
nM

>  <Recorded value>
77

$$$$
>  <Compound>
CC(C)[C@H]1CN(C)CCN1Cc1cc2c(c(C(F)(F)F)c1)CN(c1cc([C@]3(c4nncn4C)C[C@H](C)C3)cc(OC3CCCC3)n1)C2=O (single isomer, unassigned) [Compound 73]

>  <Unit name>
nM

>  <Recorded value>
1

$$$$
>  <Compound>
CO[C@H]1C[C@](c2cccc(N3Cc4c(cc(CNCC5(CF)CC5)cc4C(F)(F)F)C3=O)c2)(c2nncn2C)C1 [Compound 496]

>  <Unit name>
nM

>  <Recorded value>
6.1

$$$$
>  <Compound>
Cn1cnnc1[C@]1(c2cc(NC3CCCC3)cc(N3Cc4c(cc(CNC5(C)CCC5)cc4C(F)(F)F)C3=O)c2)C[C@H](C)C1 [Compound 177]

>  <Unit name>
nM

>  <Recorded value>
9.9

$$$$
>  <Compound>
Cn1cnnc1[C@H](c1cccc(N2Cc3c(cc(CNC4(C)CCC4)cc3C(F)(F)F)C2=O)c1)[C@H]1C[C@@H](C#N)C1 (single isomer, unassigned) [Compound 141]

>  <Unit name>
nM

>  <Recorded value>
1.9

$$$$
>  <Compound>
CO[C@H]1C[C@](c2cccc(N3Cc4c(cc(CN[C@]5(C)C[C@H](O)C5)cc4C(F)(F)F)C3=O)c2)(c2nncn2C)C1 [Compound 484]

>  <Unit name>
nM

>  <Recorded value>
13

$$$$

[a] C[C@@H]1C[C@](c2cccc(N3Cc4c(cc(CNC5(C)CCC5)cc4C(F)(F)F)C3=O)c2)(c2nncn2C)O1 [Compound 126]
[b] CO[C@H]1C[C@](c2cccc(N3Cc4c(cc(CN5CC(O)C5)cc4C(F)(F)F)C3=O)c2)(c2nncn2C)C1 [Compound 422]
[c] Cn1cnnc1C1(c2cccc(N3Cc4c(cc(CNC5(C)CCC5)cc4C(F)(F)F)C3=O)c2)CC2(CCC2)C1
[d] CO[C@H]1C[C@@H]([C@@H](c2cccc(N3Cc4c(cc(CN5CCN(C)C[C@@H]5C(C)C)cc4C(F)(F)F)C3=O)c2)c2nncn2C)C1 (stereo in doubt) [Compound 13]
Order by Kd, ascending. Answer by listing the labels in the order asked for.
c, a, d, b
(c: 2.1 nM, a: 12 nM, d: 120 nM, b: 340 nM)
